# test protocol: yeast display, Sf9 membrane polyspecificity reagent, FACS + sequencing; frameworks hold sequencing errors
measured parameter: polyreactivity (PSR sort gate)

QVQLVESGGGLVQAGGSLRLSCAASGSIYTHNAMGWSRQAPGKERELVAAISSGGSTNYADSVKGRFTISRDNAKNTVYLQMNSLKPEDTAVYYCAKSIDGWYWRRRRYDYWGQGTQVTVSS
low polyreactivity
QVQLVESGGGLVQAGGSLRLSCAASGITIKRYDMGWYRQAPGKEREFVATISQSGTSTYYADSVKGRFTISRDNAKNTVYLQMNSLKPEDTAVYYCAAYYIGYWYGYYSWGQGTQVTVSS
low polyreactivity
QVQLVESGGGLVKAGGSLRLSCAASGFTIVYYAMGWYIQAPGKERELVAAISATGGRTYYADSVKGRFTISRDNAKNTVYLQMNSLKPEDTAVYYCATRRRVLYGYDYWGQGTQVTVSS
high polyreactivity
QVQLVESGGGVVQAGGSLRLSCAASGSIVYSYAMGWYRQAPGKERELVARIRWGGGRTYYADSVKGHFAISRDNAKNTVYLQMNSLKPEDTAVYYCAASYVYPASFHYYYWGQGTQVTVSS
high polyreactivity
QVQLVESGGGLVQAGGSLRLSCAASGSTFGSYTMGWYRQAPGKERELVAAISYSSGRTYYADSVKGRFTISRDNAKNTVYLQMNSLKPEDTAVYYCAAVSRGRGEYDYWGQGTQLTVSS
high polyreactivity

// switching to the query sequence
Ask: # get_value(readout='polyreactivity (PSR sort gate)', item= QVQLVESGGGLVQAGGSLRLSCAASGSILDPYAMGWYRQAPGKERELVADISSGASTNYADSVKGRFTISRDNAKNTVYLQMNSLKPEDTAVYYCAAVYVEYSEYRYIVELYYWGQGTQVTVSS )
Result: low polyreactivity
